assay: chemical genetic growth profiling, strain panel (AID 1159580);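 note: tested at 20 µM; growth read once vehicle control cultures reached saturation at 30 °C; 1 = growth at the plate median or of vehicle wells; lower values mean less growth of the strain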; conditions: S. cerevisiae deletion strains, growth OD, locus YDR101C, strain arx1, stronger effect = lower value
The campaign covered roughly 5,500 compounds. About 2,000 (36%) were called active. Another 18% or so got no clear call; they are omitted. The list shows a part of the results.
Give normalized growth for every item shown.
Give bare numbers.

Here's what some known entries look like.
[
  {
    "Compound": "CC1CCCC(C)N1NC(=O)c1ccc(Cl)c(S(N)(=O)=O)c1 (centres undefined)",
    "Quantity name": "normalized growth",
    "Reported value": 0.99
  },
  {
    "Compound": "Cc1ccccc1N1C(=O)c2cc(S(N)(=O)=O)c(Cl)cc2NC1C (centres undefined)",
    "Quantity name": "normalized growth",
    "Reported value": 0.994
  },
  {
    "Compound": "NC[C@@H]1O[C@H](O[C@@H]2[C@@H](CO)OC(O[C@@H]3[C@@H](O)[C@H](N)C[C@H](N)[C@H]3O[C@H]3O[C@H](CO)[C@@H](O)[C@H](O)[C@H]3N)[C@@H]2O)[C@H](N)[C@@H](O)[C@@H]1O (some centres undefined)",
    "Quantity name": "normalized growth",
    "Reported value": 0.985
  }
]

Req: Give the measured normalized growth for CC1Cc2ccccc2N1NC(=O)c1ccc(Cl)c(S(N)(=O)=O)c1 (centres undefined)
Resp: 1.02
